As shown below, each of these compounds has a reported IC50 value.
Tested on: HeLa
Test: Cytotoxicity against human HeLa cells after 72 hrs by MTT assay
Format: functional, cell-based
value_type: IC50 (µM)

INSERT INTO results (compound, value_type, unit_of_measurement, assay_value) VALUES
  ('CN1CCN(c2ccc3[nH]c(-c4ccc5[nH]c(-c6ccc(O)cc6)nc5c4)nc3c2)CC1 [HOECHST 33258]', 'IC50', 'µM', 51.3),
  ('O=c1[nH]cc(F)c(=O)[nH]1 [FLUOROURACIL]', 'IC50', 'µM', 0.28),
  ('Brc1ccc(-c2nc3cc(Oc4ccc5[nH]c(-c6ccc(Br)cc6)nc5c4)ccc3[nH]2)cc1', 'IC50', 'µM', 20.4),
  ('COc1cc(-c2nc3cc(Oc4ccc5[nH]c(-c6cc(OC)c(OC)c(OC)c6)nc5c4)ccc3[nH]2)cc(OC)c1OC', 'IC50', 'µM', 9.37),
  ('c1ccc(-c2nc3cc(Oc4ccc5[nH]c(-c6ccccc6)nc5c4)ccc3[nH]2)cc1', 'IC50', 'µM', 18.4),
  ('Clc1ccc(-c2nc3cc(Oc4ccc5[nH]c(-c6ccc(Cl)cc6Cl)nc5c4)ccc3[nH]2)c(Cl)c1', 'IC50', 'µM', 17.2),
  ('COc1cc(OC)cc(-c2nc3cc(Oc4ccc5[nH]c(-c6cc(OC)cc(OC)c6)nc5c4)ccc3[nH]2)c1', 'IC50', 'µM', 8.59),
  ('Fc1ccc(-c2nc3cc(Oc4ccc5[nH]c(-c6ccc(F)cc6)nc5c4)ccc3[nH]2)cc1', 'IC50', 'µM', 22.8),
  ('COc1ccc(-c2nc3cc(Oc4ccc5[nH]c(-c6ccc(OC)cc6)nc5c4)ccc3[nH]2)cc1', 'IC50', 'µM', 4.96),
  ('COc1cc(-c2nc3cc(Oc4ccc5[nH]c(-c6ccc(O)c(OC)c6)nc5c4)ccc3[nH]2)ccc1O', 'IC50', 'µM', 10.6);

---

As shown below, each of these molecules has a reported pIC50 value.
Tested on: HL-60
Experiment: Cytotoxicity against human HL60 cells after 72 hrs by MTT assay
Assay type: functional, cell-based
Details: HL-60, 72 h
pIC50: −log10 of the molar value.
value_type: pIC50

INSERT INTO results (molecule, value_type, assay_value) VALUES
  ('Brc1ccc(-c2nc3cc(Oc4ccc5[nH]c(-c6ccc(Br)cc6)nc5c4)ccc3[nH]2)cc1', 'pIC50', 4.76),
  ('Clc1ccc(-c2nc3cc(Oc4ccc5[nH]c(-c6ccc(Cl)cc6Cl)nc5c4)ccc3[nH]2)c(Cl)c1', 'pIC50', 4.80),
  ('O=c1[nH]cc(F)c(=O)[nH]1 [FLUOROURACIL]', 'pIC50', 7.22),
  ('CC(=O)O[C@H]1C(=O)[C@@]2(C)[C@H]([C@H](OC(=O)c3ccccc3)[C@]3(O)C[C@H](OC(=O)[C@H](O)[C@@H](NC(=O)c4ccccc4)c4ccccc4)C(C)=C1C3(C)C)[C@]1(OC(C)=O)CO[C@@H]1C[C@@H]2O [PACLITAXEL]', 'pIC50', 8.55),
  ('Fc1ccc(-c2nc3cc(Oc4ccc5[nH]c(-c6ccc(F)cc6)nc5c4)ccc3[nH]2)cc1', 'pIC50', 4.63),
  ('COc1cc(OC)cc(-c2nc3cc(Oc4ccc5[nH]c(-c6cc(OC)cc(OC)c6)nc5c4)ccc3[nH]2)c1', 'pIC50', 5.20),
  ('CN1CCN(c2ccc3[nH]c(-c4ccc5[nH]c(-c6ccc(O)cc6)nc5c4)nc3c2)CC1 [HOECHST 33258]', 'pIC50', 4.49),
  ('c1ccc(-c2nc3cc(Oc4ccc5[nH]c(-c6ccccc6)nc5c4)ccc3[nH]2)cc1', 'pIC50', 4.78),
  ('COc1cc(-c2nc3cc(Oc4ccc5[nH]c(-c6cc(OC)c(OC)c(OC)c6)nc5c4)ccc3[nH]2)cc(OC)c1OC', 'pIC50', 5.12),
  ('COc1ccc(-c2nc3cc(Oc4ccc5[nH]c(-c6ccc(OC)cc6)nc5c4)ccc3[nH]2)cc1', 'pIC50', 6.25),
  ('COc1cc(-c2nc3cc(Oc4ccc5[nH]c(-c6ccc(O)c(OC)c6)nc5c4)ccc3[nH]2)ccc1O', 'pIC50', 5.09);
